- Subject of test: DNA topoisomerase 1 (Homo sapiens)
- Sequence (P11387 whole entry): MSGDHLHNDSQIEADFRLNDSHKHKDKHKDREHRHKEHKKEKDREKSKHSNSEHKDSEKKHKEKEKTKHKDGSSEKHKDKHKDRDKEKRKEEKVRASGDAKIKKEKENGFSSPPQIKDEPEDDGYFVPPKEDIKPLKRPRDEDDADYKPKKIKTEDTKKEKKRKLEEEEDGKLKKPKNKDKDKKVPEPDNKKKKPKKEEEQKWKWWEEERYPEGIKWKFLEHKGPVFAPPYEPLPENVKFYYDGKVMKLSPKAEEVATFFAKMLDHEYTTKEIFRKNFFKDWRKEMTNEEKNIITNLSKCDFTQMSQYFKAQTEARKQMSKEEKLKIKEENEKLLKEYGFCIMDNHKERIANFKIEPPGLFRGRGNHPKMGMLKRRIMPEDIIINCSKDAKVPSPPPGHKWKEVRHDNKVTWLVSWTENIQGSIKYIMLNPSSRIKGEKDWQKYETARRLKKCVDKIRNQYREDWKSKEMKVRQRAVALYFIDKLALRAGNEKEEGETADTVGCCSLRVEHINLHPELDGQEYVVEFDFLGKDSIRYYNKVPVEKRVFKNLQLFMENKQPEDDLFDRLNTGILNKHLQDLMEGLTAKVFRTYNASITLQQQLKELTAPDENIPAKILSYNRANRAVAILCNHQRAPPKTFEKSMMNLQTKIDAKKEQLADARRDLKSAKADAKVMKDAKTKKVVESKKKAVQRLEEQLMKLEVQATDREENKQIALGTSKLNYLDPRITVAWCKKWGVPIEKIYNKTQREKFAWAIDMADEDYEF
- Test summary: In vitro inhibition of Topoisomerase I-mediated DNA cleavage using supercoiled pBR322 plasmid DNA.
Measured quantity: EC50

// EC50 value for O=C1c2c(c3c4cccc(O)c4n(C4OC(CO)C(O)C(O)C4O)c3c3[nH]c4ccccc4c23)C(=O)N1NC(CO)CO (configuration not stated) : 650 nM

Reported EC50 for O=C1c2c(c3c4ccccc4n(C4OC(CO)C(O)C(O)C4O)c3c3[nH]c4c(O)cccc4c23)C(=O)N1NC(CO)CO (configuration not stated) was 210 nM

Note to self: EC50 recorded for O=C1c2c(c3c4ccc(O)cc4n(C4OC(CO)C(O)C(O)C4O)c3c3[nH]c4cc(O)ccc4c23)C(=O)N1NC(CO)CO (configuration not stated) was 51 nM

Reported EC50 for O=C1c2c(c3c4c(O)cccc4n(C4OC(CO)C(O)C(O)C4O)c3c3[nH]c4ccccc4c23)C(=O)N1NC(CO)CO (configuration not stated) was 490 nM

Quick note, EC50 for O=C1c2c(c3c4cc(O)ccc4n(C4OC(CO)C(O)C(O)C4O)c3c3[nH]c4c(O)cccc4c23)C(=O)N1NC(CO)CO (configuration not stated) landed at 130 nM

Record summary for O=C1c2c(c3c4cc(O)ccc4n(C4OC(CO)C(O)C(O)C4O)c3c3[nH]c4ccccc4c23)C(=O)N1NC(CO)CO (configuration not stated) : reported EC50 = 1900 nM

// sample O=C1c2c(c3c4ccccc4n(C4OC(CO)C(O)C(O)C4O)c3c3[nH]c4cc(O)ccc4c23)C(=O)N1NC(CO)CO (configuration not stated) , its EC50 was 650 nM
